test system: Plasmodium falciparum; assay: Primary screen in NF54 nanoGlo assay, in single point, at 2uM, 72h; format: functional, Erythrocyte; conditions: timepoint 72 hour
Out of some 150,000 compounds screened, about 540 (0.36%) showed an effect of 50% or more. The sample holds strong results, similar compounds and a random draw of the others, so the mix is not that of the screen.
assay.endpoint: % Inhibition (%)
Give the value, in units of %, as a plain number.

Worked set:
compound	system.tested	u	% Inhibition
Cc1ccc(NS(=O)(=O)c2cc(-c3nc(C)c(C)s3)sc2C)c(C)c1	Plasmodium falciparum	%	-5
Cc1ccc(CS(=O)(=O)N2CCC3CCN(C)CC32)c(F)c1 (centres undefined)	Plasmodium falciparum	%	-7
Cc1c(C)c2ccc(NC(=O)c3cc4ccccc4o3)cc2[nH]c1=O	Plasmodium falciparum	%	93
O=C(c1ccc(-c2noc(C(F)(F)F)n2)cc1)N1CCC1	Plasmodium falciparum	%	29
CC(NS(=O)(=O)N(C)C(C)C)C1CCCO1 (centres undefined)	Plasmodium falciparum	%	-8
Cc1ccccc1Cc1c(C)[nH]c2[nH]n(-c3ccccc3)c(=O)c2c1=O	Plasmodium falciparum	%	10
COc1cc(C(=O)NCc2cccnc2)ccc1OCC(=O)Nc1cccc(C(F)(F)F)c1	Plasmodium falciparum	%	3
O=C(N[C@H]1CCn2nccc2C1)c1ccc(OC(F)F)cn1	Plasmodium falciparum	%	-8
C[C@H](NCc1ccccc1CN1CCOCC1)C(=O)Nc1cccc2ccccc12	Plasmodium falciparum	%	-7
Cc1nc(CNC[C@H](O)c2ccc(Cl)c(F)c2)cs1	Plasmodium falciparum	%	10

Request: Tell us which % Inhibition value is on record for O=C1CCCN1c1ccc(NCc2cccc(O)c2)cc1F
Response: -2

Request: Tell us which % Inhibition value is on record for O=c1[nH]c2ccc(NCc3cc(Cl)ccc3OCc3ccccc3F)cc2[nH]1
Response: 2

###

system: Plasmodium falciparum; test: Primary screen in NF54 nanoGlo assay, in single point, at 2uM, 72h; format: functional, Erythrocyte; conditions: timepoint 72 hour
About 540 (0.36%) of roughly 150,000 compounds showed an effect of 50% or more. The sample holds strong results, similar compounds and a random draw of the others, so the mix is not that of the screen.
assay.endpoint: Z score
The answer should be a number; do not append a unit.

Worked set:
entry.smiles	endpoint.value
CNc1nc(NCc2ccccc2)nc2ccccc12	-8.4
C[C@H](Nc1nc(N2CCCCC2)nc2ccccc12)c1ccccc1	-5.78
COc1ccccc1-n1c(=O)[nH]c2nc(NCc3cccnc3)ncc2c1=O	-0.13
C[C@H](Nc1nc(N(C)C)nc2ccccc12)c1ccccc1	0.67

Request: Look up and report measured Z score (Plasmodium falciparum) for the following compound: CC(C)Cc1noc(CNC(=O)c2nn(C)cc2Cl)n1
Response: 1.19

Request: Look up and report measured Z score (Plasmodium falciparum) for the following compound: NS(=O)(=O)c1ccc(CCNc2nc(-c3ccccc3)nc3ccccc23)cc1
Response: 0.27

###

system: Plasmodium falciparum; assay: Primary screen in NF54 nanoGlo assay, in single point, at 2uM, 72h; assay type: functional, Erythrocyte; conditions: timepoint 72 hour
Among all 150,000 compounds or so, about 540 (0.36%) showed an effect of 50% or more. The list comes from a sample in which strong results are over-represented; it also holds close analogues and randomly drawn compounds.
assay.endpoint: % Inhibition (%)
Give the value, in units of %, as a plain number.

molecule	system.tested	assay.endpoint	u	endpoint.value
CCOc1cc(CNc2cccc3ccccc23)cc(Br)c1OCC(=O)NC(C)(C)C	Plasmodium falciparum	% Inhibition	%	56
Clc1ccc(-c2cn3c(nc4ccccc43)c(-c3ccccc3)n2)cc1	Plasmodium falciparum	% Inhibition	%	-43
NC(=O)c1n[nH]c2ccc(NC(=O)c3nn(-c4ccccc4)c(=O)c4ccccc34)cc12	Plasmodium falciparum	% Inhibition	%	-3
CC1(C2CC2)CCN(C(=O)c2csnn2)CC1	Plasmodium falciparum	% Inhibition	%	2
CC(C)CCn1c(=O)c(-c2ccc3ccccc3n2)cc2ccccc21	Plasmodium falciparum	% Inhibition	%	-1
COCC1(CNC(=O)c2ccc(-c3ccncc3C)cc2)CCC1	Plasmodium falciparum	% Inhibition	%	8

Request: Tell us which % Inhibition value is on record for O=S(=O)(Nc1cccc2cccnc12)c1cccs1
Response: 55

Request: Tell us which % Inhibition value is on record for CC(C)n1ccnc1CN1CCC[C@@](O)(CNC(=O)N2CCCCC2)CC1
Response: -5
